Field: kon. Provide a value for each of the binders that follow.
Target: T1, human C1s (human, UniProt P09871 16-688)
T1 construct: also called hC1s; serum-derived human C1s (CompTech)
T1 sequence: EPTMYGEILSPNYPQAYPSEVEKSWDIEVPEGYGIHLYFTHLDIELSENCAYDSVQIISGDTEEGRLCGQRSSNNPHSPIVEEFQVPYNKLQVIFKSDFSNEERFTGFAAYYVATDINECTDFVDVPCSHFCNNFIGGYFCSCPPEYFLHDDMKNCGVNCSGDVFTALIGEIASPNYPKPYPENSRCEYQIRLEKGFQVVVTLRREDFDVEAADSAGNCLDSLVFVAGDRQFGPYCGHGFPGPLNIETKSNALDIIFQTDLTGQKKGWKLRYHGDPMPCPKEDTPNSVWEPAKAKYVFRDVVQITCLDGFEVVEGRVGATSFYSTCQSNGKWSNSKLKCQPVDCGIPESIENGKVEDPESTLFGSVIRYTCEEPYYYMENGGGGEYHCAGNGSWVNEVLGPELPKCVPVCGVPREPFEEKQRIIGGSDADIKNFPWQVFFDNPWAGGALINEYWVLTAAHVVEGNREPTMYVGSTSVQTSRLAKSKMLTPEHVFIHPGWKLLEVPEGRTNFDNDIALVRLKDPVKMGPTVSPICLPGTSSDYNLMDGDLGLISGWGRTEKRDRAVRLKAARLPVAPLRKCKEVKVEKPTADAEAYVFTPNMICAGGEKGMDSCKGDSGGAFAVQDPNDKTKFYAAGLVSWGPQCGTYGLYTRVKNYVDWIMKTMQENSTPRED
Assay: SPR, Ab captured; pH 7.4, 1.2 mM Ca
Answer with the value and then the unit.

Enquiry: Report measured kon; entry is C1_IPN92H0160-SG4GK/IPN93L0024-SK1 (antibody, human IgG4 S228P, kappa, name in Kabat numbering, V domains shown, also called IPN92H0160/IPN93L0024) VH: EVMLVESGGGLVKPGGSLRLSCAASGFTFSNYAMSWVRQAPGKGLEWVATISSGGSHTYELDSVKGRFTISRDNSKDTLYLQMNSLRAEDTALYYCARLFTGHAMDYWGQGTLVTVSS VL: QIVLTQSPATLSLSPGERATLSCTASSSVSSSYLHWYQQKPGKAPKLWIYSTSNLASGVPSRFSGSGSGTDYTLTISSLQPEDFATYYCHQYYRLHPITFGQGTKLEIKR
Return: 368000 M⁻¹ s⁻¹

Enquiry: Report measured kon; entry is C1_IPN92H0261-SG4GK/IPN93L0091-SK1 (antibody, human IgG4 S228P, kappa, name in Kabat numbering, V domains shown, also called IPN92H0261/IPN93L0091) VH: EVMLVESGGGLVKPGGSLRLSCAASGFTFSNYAMSWVRQAPGKGLEWVATISSGGSHTYELDSVKGRFTISRDNSKDTLYLQMNSLRAEDTALYYCARLFTKHAMDYWGQGTLVTVSS VL: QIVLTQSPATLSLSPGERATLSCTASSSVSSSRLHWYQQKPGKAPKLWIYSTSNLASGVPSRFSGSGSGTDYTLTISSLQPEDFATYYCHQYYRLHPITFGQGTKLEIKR
Return: 786000 M⁻¹ s⁻¹

Enquiry: Report measured kon; entry is C1_IPN92H0033-SG4GK/IPN93L0090-SK1 (antibody, human IgG4 S228P, kappa, name in Kabat numbering, V domains shown, also called IPN92H0033/IPN93L0090) VH: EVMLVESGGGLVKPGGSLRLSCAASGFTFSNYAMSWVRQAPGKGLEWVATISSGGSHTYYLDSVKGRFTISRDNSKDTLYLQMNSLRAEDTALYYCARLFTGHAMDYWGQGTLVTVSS VL: QIVLTQSPATLSLSPGERATLSCTASSSVSSSKLHWYQQKPGKAPKLWIYSTSNLASGVPSRFSGSGSGTDYTLTISSLQPEDFATYYCHQYYRLHPITFGQGTKLEIKR
Return: 482000 M⁻¹ s⁻¹

Enquiry: Report measured kon; entry is C1_IPN92H0253-SG4GK/IPN93L0024-SK1 (antibody, human IgG4 S228P, kappa, name in Kabat numbering, V domains shown, also called IPN92H0253/IPN93L0024) VH: EVMLVESGGGLVKPGGSLRLSCAASGFTFSNYAMSWVRQAPGKGLEWVATISSGGSHTYYLDSVKGRFTISRDNSKDTLYLQMNSLRAEDTALYYCARLFTGHAMKYWGQGTLVTVSS VL: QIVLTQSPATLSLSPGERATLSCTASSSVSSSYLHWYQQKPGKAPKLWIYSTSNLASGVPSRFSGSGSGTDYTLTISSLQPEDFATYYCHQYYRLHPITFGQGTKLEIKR
Return: 569000 M⁻¹ s⁻¹

Enquiry: Report measured kon; entry is C1_IPN92H0091-SG4GK/IPN93L0024-SK1 (antibody, human IgG4 S228P, kappa, name in Kabat numbering, V domains shown, also called IPN92H0091/IPN93L0024) VH: EVMLVESGGGLVKPGGSLRLSCAASGFTFSNYAKSWVRQAPGKGLEWVATISSGGSHTYYLDSVKGRFTISRDNSKDTLYLQMNSLRAEDTALYYCARLFTGHAMDYWGQGTLVTVSS VL: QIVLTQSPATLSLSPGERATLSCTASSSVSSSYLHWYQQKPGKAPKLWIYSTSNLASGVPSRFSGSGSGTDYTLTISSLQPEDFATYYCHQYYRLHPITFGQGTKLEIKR
Return: 277000 M⁻¹ s⁻¹

Enquiry: Report measured kon; entry is C1_IPN92H0159-SG4GK/IPN93L0024-SK1 (antibody, human IgG4 S228P, kappa, name in Kabat numbering, V domains shown, also called IPN92H0159/IPN93L0024) VH: EVMLVESGGGLVKPGGSLRLSCAASGFTFSNYAMSWVRQAPGKGLEWVATISSGGSHTYDLDSVKGRFTISRDNSKDTLYLQMNSLRAEDTALYYCARLFTGHAMDYWGQGTLVTVSS VL: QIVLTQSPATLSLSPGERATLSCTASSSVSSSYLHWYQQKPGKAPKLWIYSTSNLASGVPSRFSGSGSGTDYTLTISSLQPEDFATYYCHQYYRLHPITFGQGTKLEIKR
Return: 302000 M⁻¹ s⁻¹

Enquiry: Report measured kon; entry is C1_IPN92H0193-SG4GK/IPN93L0024-SK1 (antibody, human IgG4 S228P, kappa, name in Kabat numbering, V domains shown, also called IPN92H0193/IPN93L0024) VH: EVMLVESGGGLVKPGGSLRLSCAASGFTFSNYAMSWVRQAPGKGLEWVATISSGGSHTYYLDSVKDRFTISRDNSKDTLYLQMNSLRAEDTALYYCARLFTGHAMDYWGQGTLVTVSS VL: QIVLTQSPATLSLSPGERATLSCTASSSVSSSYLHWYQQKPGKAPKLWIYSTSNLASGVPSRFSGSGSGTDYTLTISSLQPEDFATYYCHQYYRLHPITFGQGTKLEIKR
Return: 513000 M⁻¹ s⁻¹

Enquiry: Report measured kon; entry is C1_IPN92H0147-SG4GK/IPN93L0024-SK1 (antibody, human IgG4 S228P, kappa, name in Kabat numbering, V domains shown, also called IPN92H0147/IPN93L0024) VH: EVMLVESGGGLVKPGGSLRLSCAASGFTFSNYAMSWVRQAPGKGLEWVATISSGGSHDYYLDSVKGRFTISRDNSKDTLYLQMNSLRAEDTALYYCARLFTGHAMDYWGQGTLVTVSS VL: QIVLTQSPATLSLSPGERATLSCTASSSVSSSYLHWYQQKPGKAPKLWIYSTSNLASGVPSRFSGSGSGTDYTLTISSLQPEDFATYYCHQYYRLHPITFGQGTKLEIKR
Return: 374000 M⁻¹ s⁻¹
